Reference for the values: PubChem BioAssay AID1918946

Test system: 885512-296-R-J2-PDC complex spheroid viability
assay protocol: Anticancer human tumor 885512-296-R-J2-PDC patient-derived breast carcinoma cell line growth inhibition; active means viability on the fitted dose curve at most 10% of control; inactive means the rest
condition summary: second compound 0.316 µM; first compound 0.0316 µM
Outcomes: active, inactive

{"columns": ["molecule", "class"],
 "data": [
  ["CC(C)c1c(-c2ccccc2)nc2c(C#N)c[nH]n2c1=O + NC1CCC(NC2CC2c2ccccc2)CC1", "inactive"],
  ["O=C(C=Cn1cnc(-c2cc(C(F)(F)F)cc(C(F)(F)F)c2)n1)NNc1cnccn1 + NC1CCC(NC2CC2c2ccccc2)CC1", "active"],
  ["COc1ccc([C@@H](O)c2cc(-c3ncnc4cc(N5CCOCC5)ccc34)c(F)cc2Cl)nn1 + NC1CCC(NC2CC2c2ccccc2)CC1", "inactive"],
  ["CC(C)c1c(-c2ccccc2)nc2c(C#N)c[nH]n2c1=O + NC1CC1c1ccc(-c2cccc(O)c2)cc1", "inactive"],
  ["CC1(C)CCC(CN2CCN(c3ccc(C(=O)NS(=O)(=O)c4ccc(NCC5CCOCC5)c([N+](=O)[O-])c4)c(Oc4cnc5[nH]ccc5c4)c3)CC2)=C(c2ccc(Cl)cc2)C1 + NC1CCC(NC2CC2c2ccccc2)CC1", "inactive"],
  ["O=C(c1cc(Cc2n[nH]c(=O)c3ccccc23)ccc1F)N1CCN(C(=O)C2CC2)CC1 + NC1CCC(NC2CC2c2ccccc2)CC1", "inactive"]
]}

====

System: 885512-296-R-J2-PDC complex spheroid viability
assay protocol: Anticancer human tumor 885512-296-R-J2-PDC cell line growth inhibition;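 further: spheroids exposed to agents for 7 days before viability read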
condition summary: second compound 1 µM; first compound 0.3 µM; stronger effect = lower value
experimental readout: viability, T/C (%)

{"columns": ["compound", "endpoint value"],
 "data": [
  ["CCN(c1cc(-c2ccc(CN3CCOCC3)cc2)cc(C(=O)NCc2c(C)cc(C)[nH]c2=O)c1C)C1CCOCC1 + NC1CC1c1ccc(-c2cccc(O)c2)cc1", 31.1],
  ["Nc1ccn(C2OC(CO)C(O)C2(F)F)c(=O)n1 (stereo unspecified) + NC1CCC(NC2CC2c2ccccc2)CC1", 10.6],
  ["Nc1ncn(C2CC(O)C(CO)S2)c(=O)n1 (stereo unspecified) + NC1CC1c1ccc(-c2cccc(O)c2)cc1", 4.21],
  ["Nc1ccccc1NC(=O)c1ccc(CNC(=O)OCc2cccnc2)cc1 + NC1CC1c1ccc(-c2cccc(O)c2)cc1", 15],
  ["O=C(C=Cc1cccc(S(=O)(=O)Nc2ccccc2)c1)NO + NC1CC1c1ccc(-c2cccc(O)c2)cc1", 13.9],
  ["CCc1c2c(nc3ccc(O)cc13)-c1cc3c(c(=O)n1C2)COC(=O)[C@]3(O)CC + NC1CCC(NC2CC2c2ccccc2)CC1", 3.93],
  ["COc1cc(C2c3cc4c(cc3C(OC3OC5COC(C)OC5C(O)C3O)C3COC(=O)C23)OCO4)cc(OC)c1O (stereo unspecified) + NC1CCC(NC2CC2c2ccccc2)CC1", 13],
  ["CCc1c2c(nc3ccc(O)cc13)-c1cc3c(c(=O)n1C2)COC(=O)[C@]3(O)CC + NC1CC1c1ccc(-c2cccc(O)c2)cc1", 1.13],
  ["COc1cc(C2c3cc4c(cc3C(OC3OC5COC(C)OC5C(O)C3O)C3COC(=O)C23)OCO4)cc(OC)c1O (stereo unspecified) + NC1CC1c1ccc(-c2cccc(O)c2)cc1", 5.06],
  ["O=C(C=Cc1cccc(S(=O)(=O)Nc2ccccc2)c1)NO + NC1CCC(NC2CC2c2ccccc2)CC1", 19.9],
  ["Nc1ncn(C2CC(O)C(CO)S2)c(=O)n1 (stereo unspecified) + NC1CCC(NC2CC2c2ccccc2)CC1", 6.83],
  ["CCN(c1cc(-c2ccc(CN3CCOCC3)cc2)cc(C(=O)NCc2c(C)cc(C)[nH]c2=O)c1C)C1CCOCC1 + NC1CCC(NC2CC2c2ccccc2)CC1", 87.2],
  ["Nc1ccccc1NC(=O)c1ccc(CNC(=O)OCc2cccnc2)cc1 + NC1CCC(NC2CC2c2ccccc2)CC1", 28.6],
  ["Nc1ccn(C2OC(CO)C(O)C2(F)F)c(=O)n1 (stereo unspecified) + NC1CC1c1ccc(-c2cccc(O)c2)cc1", 2.5],
  ["NS(=O)(=O)OCC1CC(n2ccc3c(NC4CCc5ccccc54)ncnc32)CC1O (stereo unspecified) + NC1CCC(NC2CC2c2ccccc2)CC1", 4.31],
  ["NS(=O)(=O)OCC1CC(n2ccc3c(NC4CCc5ccccc54)ncnc32)CC1O (stereo unspecified) + NC1CC1c1ccc(-c2cccc(O)c2)cc1", 1.53]
]}

====

Tested on: 885512-296-R-J2-PDC complex spheroid viability
assay protocol: Anticancer human tumor 885512-296-R-J2-PDC cell line growth inhibition;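 further: spheroids exposed to agents for 7 days before viability read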
condition summary: curve of first compound; second compound 1 µM
pIC50: −log10 of the molar value.
# cutoff 8 applies to pIC50; >= gives Fulfilled, < gives Not fulfilled

{"columns": ["compound", "test target", "class"],
 "data": [
  ["Nc1ncn(C2CC(O)C(CO)O2)c(=O)n1 (stereo not drawn) + NC1CCC(NC2CC2c2ccccc2)CC1", "885512-296-R-J2-PDC complex spheroid viability", "Not fulfilled"],
  ["CC[C@@]1(O)C(=O)OCc2c1cc1n(c2=O)Cc2cc3c(CN(C)C)c(O)ccc3nc2-1 + NC1CCC(NC2CC2c2ccccc2)CC1", "885512-296-R-J2-PDC complex spheroid viability", "Fulfilled"],
  ["CCc1c2c(nc3ccc(O)cc13)-c1cc3c(c(=O)n1C2)COC(=O)[C@]3(O)CC + NC1CC1c1ccc(-c2cccc(O)c2)cc1", "885512-296-R-J2-PDC complex spheroid viability", "Fulfilled"],
  ["O=C(C=Cc1cccc(S(=O)(=O)Nc2ccccc2)c1)NO + NC1CCC(NC2CC2c2ccccc2)CC1", "885512-296-R-J2-PDC complex spheroid viability", "Not fulfilled"],
  ["COc1ccc([C@@H](O)c2cc(-c3ncnc4cc(N5CCOCC5)ccc34)c(F)cc2Cl)nn1 + NC1CC1c1ccc(-c2cccc(O)c2)cc1", "885512-296-R-J2-PDC complex spheroid viability", "Not fulfilled"],
  ["COc1ccc([C@@H](O)c2cc(-c3ncnc4cc(N5CCOCC5)ccc34)c(F)cc2Cl)nn1 + NC1CCC(NC2CC2c2ccccc2)CC1", "885512-296-R-J2-PDC complex spheroid viability", "Not fulfilled"],
  ["COc1cc(C2c3cc4c(cc3C(OC3OC5COC(C)OC5C(O)C3O)C3COC(=O)C23)OCO4)cc(OC)c1O (stereo not drawn) + NC1CC1c1ccc(-c2cccc(O)c2)cc1", "885512-296-R-J2-PDC complex spheroid viability", "Not fulfilled"],
  ["O=C(c1cc(Cc2n[nH]c(=O)c3ccccc23)ccc1F)N1CCN(C(=O)C2CC2)CC1 + NC1CC1c1ccc(-c2cccc(O)c2)cc1", "885512-296-R-J2-PDC complex spheroid viability", "Not fulfilled"],
  ["Cn1ncnc1C1c2n[nH]c(=O)c3cc(F)cc(c23)NC1c1ccc(F)cc1 (stereo not drawn) + NC1CC1c1ccc(-c2cccc(O)c2)cc1", "885512-296-R-J2-PDC complex spheroid viability", "Not fulfilled"],
  ["CCN(c1cc(-c2ccc(CN3CCOCC3)cc2)cc(C(=O)NCc2c(C)cc(C)[nH]c2=O)c1C)C1CCOCC1 + NC1CC1c1ccc(-c2cccc(O)c2)cc1", "885512-296-R-J2-PDC complex spheroid viability", "Not fulfilled"],
  ["CC(C)c1c(-c2ccccc2)nc2c(C#N)c[nH]n2c1=O + NC1CC1c1ccc(-c2cccc(O)c2)cc1", "885512-296-R-J2-PDC complex spheroid viability", "Not fulfilled"],
  ["CC(C)c1c(-c2ccccc2)nc2c(C#N)c[nH]n2c1=O + NC1CCC(NC2CC2c2ccccc2)CC1", "885512-296-R-J2-PDC complex spheroid viability", "Not fulfilled"],
  ["COc1cc(C2c3cc4c(cc3C(OC3OC5COC(C)OC5C(O)C3O)C3COC(=O)C23)OCO4)cc(OC)c1O (stereo not drawn) + NC1CCC(NC2CC2c2ccccc2)CC1", "885512-296-R-J2-PDC complex spheroid viability", "Not fulfilled"],
  ["CC(C)CC(NC(=O)C(Cc1ccccc1)NC(=O)c1cnccn1)B(O)O (stereo not drawn) + NC1CCC(NC2CC2c2ccccc2)CC1", "885512-296-R-J2-PDC complex spheroid viability", "Fulfilled"],
  ["CC1COCCN1c1cc(-c2ccnn2C)c2ccnc(-c3ccn[nH]3)c2n1 (stereo not drawn) + NC1CCC(NC2CC2c2ccccc2)CC1", "885512-296-R-J2-PDC complex spheroid viability", "Fulfilled"],
  ["CC(C)CC(NC(=O)C(Cc1ccccc1)NC(=O)c1cnccn1)B(O)O (stereo not drawn) + NC1CC1c1ccc(-c2cccc(O)c2)cc1", "885512-296-R-J2-PDC complex spheroid viability", "Fulfilled"],
  ["O=C(C=Cc1cccc(S(=O)(=O)Nc2ccccc2)c1)NO + NC1CC1c1ccc(-c2cccc(O)c2)cc1", "885512-296-R-J2-PDC complex spheroid viability", "Not fulfilled"],
  ["CC1COCCN1c1cc(C2(S(C)(=N)=O)CC2)nc(-c2ccnc3[nH]ccc23)n1 (stereo not drawn) + NC1CCC(NC2CC2c2ccccc2)CC1", "885512-296-R-J2-PDC complex spheroid viability", "Not fulfilled"],
  ["Nc1ncn(C2CC(O)C(CO)O2)c(=O)n1 (stereo not drawn) + NC1CC1c1ccc(-c2cccc(O)c2)cc1", "885512-296-R-J2-PDC complex spheroid viability", "Not fulfilled"],
  ["Nc1ccccc1NC(=O)c1ccc(CNC(=O)OCc2cccnc2)cc1 + NC1CCC(NC2CC2c2ccccc2)CC1", "885512-296-R-J2-PDC complex spheroid viability", "Not fulfilled"],
  ["Nc1ccn(C2OC(CO)C(O)C2(F)F)c(=O)n1 (stereo not drawn) + NC1CCC(NC2CC2c2ccccc2)CC1", "885512-296-R-J2-PDC complex spheroid viability", "Fulfilled"],
  ["CC1(C)CCC(CN2CCN(c3ccc(C(=O)NS(=O)(=O)c4ccc(NCC5CCOCC5)c([N+](=O)[O-])c4)c(Oc4cnc5[nH]ccc5c4)c3)CC2)=C(c2ccc(Cl)cc2)C1 + NC1CCC(NC2CC2c2ccccc2)CC1", "885512-296-R-J2-PDC complex spheroid viability", "Not fulfilled"],
  ["Cn1ncnc1C1c2n[nH]c(=O)c3cc(F)cc(c23)NC1c1ccc(F)cc1 (stereo not drawn) + NC1CCC(NC2CC2c2ccccc2)CC1", "885512-296-R-J2-PDC complex spheroid viability", "Not fulfilled"],
  ["CC[C@@]1(O)C(=O)OCc2c1cc1n(c2=O)Cc2cc3c(CN(C)C)c(O)ccc3nc2-1 + NC1CC1c1ccc(-c2cccc(O)c2)cc1", "885512-296-R-J2-PDC complex spheroid viability", "Fulfilled"],
  ["NS(=O)(=O)OCC1CC(n2ccc3c(NC4CCc5ccccc54)ncnc32)CC1O (stereo not drawn) + NC1CC1c1ccc(-c2cccc(O)c2)cc1", "885512-296-R-J2-PDC complex spheroid viability", "Fulfilled"],
  ["CC1COCCN1c1cc(C2(S(C)(=N)=O)CC2)nc(-c2ccnc3[nH]ccc23)n1 (stereo not drawn) + NC1CC1c1ccc(-c2cccc(O)c2)cc1", "885512-296-R-J2-PDC complex spheroid viability", "Not fulfilled"]
]}
